Reference source for all entries: the supplement of paper PMC9170038

Tested on: MS2 coat protein
protocol.details: apparent KD of MS2 coat protein; higher = weaker reporter binding
applied.conditions: Eterna round: R107; input ligand: arginine 13.2 mM
Kindly supply the reported apparent KD of MS2 coat protein values for the records listed here.

State recorded apparent KD of MS2 coat protein for all listed sequences.
1. UCACAUGAGGAUCACCCAUGUCAUGUUGAAGGAGCGACCAGGAGGUCAGGUAGGUCGCAACACAUGAGGAUCACCCAUGUGGCCC [Qetesh]
2. GUGACUUACGGGCGCCAUUUGUGAUAGGAAGGAGCGGCGAAAUAGCCAGGUAGGUCGCCUAUACAUGAGGAUCACCCAUGUCACC [Veveatonus]
3. UCGCUCUGGGUGAAUUCCGGAGAUGUGGAAGGAGCGGACGAAAGUCCAGGUAGGUCGCCAUCGAACAUGAGGAUCACCCAUGUAC [Same State - Arginine A (Freestyle 24)]

[out]
["87.5 nM", "45.1 nM", "55.8 nM"]

----------
Test system: K4 kissing-loop RNA reporter;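 further: bound reporter read as fluorescence of individual clusters on recovered sequencing chips by microscopy, with normalized cluster intensities fitted with a binding model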
protocol.details: apparent KD of K4 kissing-loop reporter; higher = weaker reporter binding
applied.conditions: Eterna round: R107; input ligand: tryptophan 2.4 mM
Categorize each record by its apparent KD of K4 kissing-loop reporter using c1: < 100 nM; c2: ≥ 100 nM and < 300 nM; c3: ≥ 300 nM

UUACAGCCCAGUGAUGUUGGGUAGCGGCGGCGAGGACCGGUACGGCCGCCACUCGGCGCACAGGCGGAGUGAUGUUUUGCUUAAA [Same State Tryptophan A GF 11]    c3
CCUGCGGCUUCCGGCGGGCCCGAUUUAUAAAAGGAUAUGUGCGUACACAGAAGGUUUAACGAGGGACCGAGAGUGAUGUUCUCCU [theeternabot_sameState_KL_FMN_A_33]    c3
UUGCCCGAUGGAGAUACCAGCAGUUGUGCAGUGAUGUUGCACAAGUACUCGCUCCAUUGCUGCCCUUGGCAGCUCCCGGCGAAAA [Reoraren]    c1

[in] Dear colleague, I would appreciate it if you could identify the bin for UGACUUGCCUGAGGAUAUCUAGGAUAUGGAUAAAAUAAAAUAAUAAUGGAGUGAUGUUCCAGAAGGAGAGAAGGCAGGUAAGUCU [KL-XFMN-B16 #DoubleAptamer #SwitchBubble] and reply at your convenience.
[out] c1

[in] Could you tell me which band AAAGGAUCAGAGAGUGAUGUUCUCUAAUAACGAGGACCGGUACGGCCGCCACUCGAAGAUCCAAAAGUCCUACGAAAAGUAGGAC [Omei inspired 7] belongs to?
[out] c2

[in] Where would AUUUAUGUUUCGGCCGCCACUCCACGUACUCAGAGAGAGUGAUGUUCUUUUUAUUAACGUCUAUGGAGGACCGGGAAGAGGUGAG [theeternabot_exclusion_KL_Trp_B_37] land among the classes by reported apparent KD of K4 kissing-loop reporter?
[out] c3

[in] In plain terms, what class is AUCGUUGUCUGAGGAUAUCGGUUAUCUGUAGUGAUGUUACAGUAUAUUCAUAUUAUACUUUCUAUUCGAGAAGGCAGACUACGUA [JR_Nu_ExcFMNB_Sub020] ?
[out] c1

[in] Any idea which band AUUUUGGUUUAGAGUGAUGUUCCUUGUGUUCGAGGACCGGUACGGCCGCCACUCGGGUAGAAAAGAAAAGAAAUGUUUGAUUUUU [BDazzled - #10 SS Tryptophan A] is in?
[out] c2

[in] Which band does GCUAUGGUAGGAAGGAGCGCUUGCUCGGUCAUAUGAGUGAUGUUCGAGACUGAGCAUUUAUAGCAGGUAGGUCGCCUACUAUAGC [Arginine B K4 9] fall in?
[out] c2

[in] Category of UUCUACGAGUGAUGUUCGUAGUGUAAUAGCUAGGAUAUCGUUUUUUCGAGAAGGAGCUUCGAAGUGAUACGAAAGUAUCGCUUCG [FMN A 12] , please.
[out] c2
